Experiment: RAM signaling pathway blockade in yeast – S. cerevisiae, Pdr1DBD-CYC8 efflux-inhibited sensitized strain, primary screen (AID 1298);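 also: 0% = DMSO untreated cells without growth and 100% = 10 µM 1-NA-PP1 full growth; higher means more yeast growth rescued from 5-FOA killing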
Conditions: S. cerevisiae cbk1-as DSE1-URA3 strain, 5-FOA growth OD615, 2 d; at 50 µM; stronger effect = higher value
Exercise: for every item that follows, state its recorded RAM network inhibition.
# output: bare number, implied unit %

Record O=C(O)C1C(c2ccccc2)C(C(=O)OCc2ccco2)C1c1ccccc1 (stereo not given) , field RAM network inhibition: 6.05

RAM network inhibition measured on COc1ccc(N(CC(=O)Nc2ccc3c(c2)OCCO3)S(=O)(=O)c2cccnc2)cc1 = 4.76

Record CCCN(CCC)C(=O)CCS(=O)(=O)c1cccc2nsnc12 . Reported RAM network inhibition: 2.25

Briefly, RAM network inhibition measured for CCOC(=O)c1ccc(-n2c(C)nc3c(cnn3-c3ccccc3C)c2=O)cc1 : 2.95

The compound O=C(O)CCC(=O)Nc1ccc(-c2nnc(-c3ccco3)o2)cc1 showed RAM network inhibition equal to 2.14

Sure, the documented RAM network inhibition for COc1ccc(N2CCN(C(=O)c3cc4c(-c5ccc(Cl)cc5)nn(C)c4s3)CC2)cc1 is 3.98

The compound CCCOc1ccc2ccccc2c1/C=N/n1cnnc1 showed RAM network inhibition equal to -1.74

Value of measured RAM network inhibition for the entry COc1c(Cl)cc(-c2noc(C)c2C(=O)NC(C)C)cc1Cl : 2.37

Recorded result, Cn1nnc2cc(C(=O)N3CCCCCC3)ccc21 , RAM network inhibition: 1.87

Reported RAM network inhibition for Cc1ccc(C)c2[nH]c(=O)c(CCNC(=O)CC(C)(C)C)cc12 was 4.85

Recorded result, O=C1CCCCCC1C1(O)C(=O)Nc2ccccc21 (stereo not given) , RAM network inhibition: 1.29

response.value for CCCCN(C(=O)c1ccc(Cl)cc1)C1CC2CCC(C1)N2C (stereo not given) (field: RAM network inhibition) = -0.05

Memo: COc1ccc(CNC(=O)CS(=O)Cc2nc(-c3ccc(C)cc3)oc2C)cc1 (stereo not given) , reported RAM network inhibition: 5.95

Data point: O=C(NCCN1CCCC1)c1ccc(CS(=O)(=O)c2c(Cl)cccc2Cl)o1 ; RAM network inhibition = 2.61

Input COc1ccc(NC(=O)c2cc(C3CC3)on2)c(OC)c1 . Output RAM network inhibition: 4.64

// field: RAM network inhibition; key: COc1ccccc1NC(=O)N(Cc1ccccc1)c1ccccn1 ; value = 6.47

Per the records, this compound ( CC12CN3CCN(CC(C3)C1(O)CN1CCCCC1)C2 (stereo not given) ) has RAM network inhibition equal to 1.07

Just so you know, measured RAM network inhibition for O=C(NCCN1C(=O)C2C3C=CC(C3)C2C1=O)Nc1ccccn1 (stereo not given) came out at 3.24

Value of RAM network inhibition reported for the compound Cc1ccc(-c2cc(C(=O)Nc3cc(C)on3)c3ccccc3n2)c(C)c1 is 7.01

Measured RAM network inhibition, CC(Oc1ccccc1)C(=O)NC1CC(C)(C)NC(C)(C)C1 (stereo not given) : 2.18

RAM network inhibition measured on CCCS(=O)(=O)N1CCN(C(=O)c2cccnc2)CC1 = 0.42

Record COc1ccc(NC(=O)CN(c2ccc(C(C)C)cc2)S(=O)(=O)c2c(C)noc2C)cc1OC . Reported RAM network inhibition: 3.37

RAM network inhibition in this record for CN(CCCNC(=O)c1cn(C)c2ccc(S(=O)(=O)N(C)C)cc2c1=O)c1ccccc1 : 7.85

Entry under test: CCCCOc1ccc(-c2nc(-c3cccnc3)no2)cc1 . Its RAM network inhibition was 2.29

compound CCOC(=O)N1CCN(C(=O)c2cc3c(=O)n(C)c4ccccc4c3n2C)CC1 , RAM network inhibition observed: 0.42

In plain terms, Cc1ccc(/C=N/n2c(C)nnc2C)cc1 has a documented RAM network inhibition of 0.41

RAM network inhibition for CC1CCN(c2nc3c(c(=O)[nH]c(=O)n3C)n2CCSc2ncccn2)CC1 is 2.81

The compound O=C(c1ccc(Br)o1)N(Cc1ccccc1)c1ccccn1 showed RAM network inhibition equal to 12

Summary for this compound, COc1ccc(Cc2nnc(NC(=O)c3c(-c4ccccc4)noc3C)s2)cc1 : RAM network inhibition is 5.46

RAM network inhibition reading for NC(=O)CN1C(=O)C(O)(CC(=O)c2ccccc2O)c2ccccc21 (stereo not given) : 2.98

Please fill in: RAM network inhibition reported for CCOc1ccccc1C1CC(c2ccc(Br)cc2)Nc2nc(N)nn21 (stereo not given) = 4.4

Entry CC(C)=C(NC(=O)c1ccccc1)C(=O)NCCCC(=O)O ; RAM network inhibition = 2.34

For CN(C)c1ccc(CN2CCCCCC2)cc1 the compound record lists RAM network inhibition as 0.1

response.value for CCOC(=O)c1sc(NC(=O)c2noc3c2CCCC3)c(C(=O)OCC)c1C (field: RAM network inhibition) = 2.96

# compound CCCCNC(=O)Cn1c(=O)n(C)c2ccccc21 ; its RAM network inhibition = -1.79

What the record says about CCn1c(NC(=O)c2cccc(Cn3cc(Cl)cn3)c2)nc2ccccc21 : RAM network inhibition is 4.07

The value of RAM network inhibition measured for the compound COc1ccc(-n2c(Cc3cccn3C)nnc2SCC(N)=O)cc1 turned out to be 0.63

RAM network inhibition reported for this compound CC(C)CCOc1cccc(C2c3c(oc4ccccc4c3=O)C(=O)N2CCCN2CCOCC2)c1 (stereo not given) : 6.7

Summary for this compound, COC(=O)C(C)Sc1nc2c(c(=O)n1-c1ccccc1)SCC2 (stereo not given) : RAM network inhibition is 4.56

Measured RAM network inhibition, CCC1Oc2ccccc2N(CC(=O)NCCCN2CCOCC2)C1=O (stereo not given) : 0.62

Entry Cc1noc(NS(=O)(=O)c2ccc(N3Cc4ccccc4C3=O)cc2)c1C , RAM network inhibition reported as 5.3

Form field RAM network inhibition, entry CC(=O)C1=C(C)NC(SCC(=O)c2ccc(C)cc2)=C(C#N)C1c1ccco1 (stereo not given) : 2.93

// RAM network inhibition value for Cc1nc2ccc(S(=O)(=O)NC(C(=O)N3CCCC3)C(C)C)cc2s1 (stereo not given) : 0.27

Sure, the documented RAM network inhibition for CC(C)C(CO)NC(=O)CC(=O)NC(CO)C(C)C (stereo not given) is 6.33

For reference, reported RAM network inhibition for CN1C(=O)c2cccc(NC(=O)CCc3ccccc3)c2C1=O stands at 1.84

* * *

Would you mind telling me the reported inhibition of each entry?
Test: yeast transport mutant growth inhibition pilot in 384-well plates, post-Golgi transport modulator project (AID 636)
Details: absorbance 615 nm, about 18 h, stronger effect = higher value
Record the value in %, omitting the unit from your answer.

So for CCOC(=O)c1cc2c(=O)n3ccccc3nc2n(CC(C)C)c1=NC(=O)c1ccco1 , the logged inhibition turned out to be -2.47

Sample COc1ccc(-n2c(Cc3cccn3C)nnc2SCC(N)=O)cc1 ; inhibition observed: 0.64

Looking up O=C(OCN1C(=O)c2ccccc2C1=O)C1CCCCC1 , I found its inhibition recorded as 3.08

Field inhibition (entry CCOC(=O)N1CCC(c2cc(=O)n3[nH]cc(C(=O)OC)c3n2)CC1 ) reads -4

# inhibition (compound: Cc1ccc2oc(=O)c3cnn(CC(=O)N4CCCc5ccccc54)c3c2c1 ) is -2.67

Briefly, inhibition measured for O=C(OCCN=C1NS(=O)(=O)c2ccccc21)C1CC(=O)N(c2ccc(Cl)cc2)C1 (stereo unspecified) : -3.25

inhibition recorded for this compound, CC(C)CCn1c(NCCc2ccccc2)nc2c1c(=O)n(C)c(=O)n2C , is -2.93

Entry COc1ccc(C2C(C(=O)Nc3cccnc3)=C(C)Nc3nc(-c4cccs4)nn32)cc1OC (stereo unspecified) — recorded inhibition = 1.2

Lab note: measured inhibition of CCC(C)(NC(=O)CNC(C)=O)C(=O)NC1CCCCC1 (stereo unspecified) was -5.48

inhibition reading for O=C(CN1CCN(Cc2ccc(F)cc2Cl)C1=O)NCCCN1CCOCC1 : -3.07

The recorded inhibition for Cc1nnc(NC(=O)CSc2nc3c(c(=O)n2C)SC(C)C3)s1 (stereo unspecified) is -6.27

* * *

Assay: RAM signaling pathway blockade in yeast – S. cerevisiae, Pdr1DBD-CYC8 efflux-inhibited sensitized strain, primary screen (AID 1298);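 also: 0% = DMSO untreated cells without growth and 100% = 10 µM 1-NA-PP1 full growth; higher means more yeast growth rescued from 5-FOA killing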
Conditions: S. cerevisiae cbk1-as DSE1-URA3 strain, 5-FOA growth OD615, 2 d; at 50 µM; stronger effect = higher value
ATTRIBUTE MEASURED: RAM network inhibition (%)
Field format: number, assumed %, no unit text.

# RAM network inhibition (compound: Cc1oc(-c2cccc(Cl)c2)nc1CN1CCC(C(=O)N2CCN(c3ccccc3F)CC2)CC1 ) is 6.04

Entry under test: COc1cc(NC(=O)C2CCCN2S(=O)(=O)c2cccc3cccnc23)cc(OC)c1OC (stereo unspecified) . Its RAM network inhibition was 2.32

Noted for Cc1cccc(C2CC(c3ccccc3)Nc3nc(N)nn32)c1 (stereo unspecified) : its RAM network inhibition reads 0.21

// sample COc1ccc(S(=O)(=O)N(CC(=O)N2CCN(c3ccccc3OC)CC2)c2ccccc2)cc1 , its RAM network inhibition was 2.02

Given item O=C(Nc1nccs1)c1cc(S(=O)(=O)N2CCCCC2)ccc1Cl , the value recorded as its RAM network inhibition is 4.88

For this compound ( COc1ccc(-n2c(SCC(=O)Nc3nccs3)nc3c(c2=O)SCC3)cc1 ), measured RAM network inhibition is 5.95

For C#CCSc1nnc(-c2c[nH]c3ccccc23)n1C the compound record lists RAM network inhibition as -0.92

What the record says about CCOc1ccccc1NC(=O)CSc1nnc(-c2ccccn2)n1Cc1ccco1 : RAM network inhibition is 3.98

Briefly, RAM network inhibition measured for O=C(/C=N/O)Nc1ccccc1C(=O)O : 4.14

Field RAM network inhibition (entry COc1cccc(-c2nnc(NC(=O)c3ccccc3Br)o2)c1 ) reads -2.32

Note to self: RAM network inhibition recorded for O=C(NCCN1CCCCCC1)c1ccc(CS(=O)(=O)c2ccc(Br)cc2)o1 was 4.63
